test system: ncRNAs (SEQ ID NO 28-89); experiment: ncRNA arrays of melanocytes, keratinocytes, normal skin, melanoma cell lines and patient samples; design: species or system human; conditions: melanoma patient 5 sample compared to normal skin
ncRNA array expression, patient 5 strictly less than -2 = t. Otherwise f.

# count of solved cases: 5
[[record]]
substance = "SEQ ID NO 54 (TTTTTTTTCTTGTCCTATTACAACATTTTATAACCTTATGAATCAATGGATACTTTTATT; listed as DNA, chemistry not given here; listed as Homo sapiens)"
measurement_target = "ncRNAs (SEQ ID NO 28-89)"
assigned_label = "f"

[[record]]
substance = "SEQ ID NO 32 (ATTCAAATCTTCATGAATGGCATCACTTGCTTTAGACCCATTTTTTTTTTATTGGTCAGA; DNA, backbone and methylation of C not given here; listed as Homo sapiens)"
measurement_target = "ncRNAs (SEQ ID NO 28-89)"
assigned_label = "f"

[[record]]
substance = "SEQ ID NO 87 (GGGATATTTTTAAGGGGAAGGGGAAGGATAGAGAGAAAGTGCAGGCAGGGCTGGGGTCTG; listed as DNA, chemistry not given here; listed as Homo sapiens)"
measurement_target = "ncRNAs (SEQ ID NO 28-89)"
assigned_label = "t"

[[record]]
substance = "SEQ ID NO 30 (ATTCCAAGGCCTATTAAAATTTCTGAGCATTGCCCATTTCTTTTGCTTTATCTGTAGGAC; DNA, backbone and methylation of C not given here; listed as Homo sapiens)"
measurement_target = "ncRNAs (SEQ ID NO 28-89)"
assigned_label = "f"

[[record]]
substance = "SEQ ID NO 42 (TAGACATAGGTTAGAGGGGGAACAGTGCTTAAAATTCCATGGAACTAAGATTTTTTTTAT; listed as DNA, chemistry not given here; listed as Homo sapiens)"
measurement_target = "ncRNAs (SEQ ID NO 28-89)"
assigned_label = "f"


Task: I wonder whether SEQ ID NO 74 (TATATTACAGGAGTTGTCTATACGATTATAGTACCTGATTCTTTGGACATATCATTGAAC; listed as DNA, chemistry not given here; listed as Homo sapiens) has ncRNA array expression, patient 5 below -2. Can you tell?
Output: f

Task: # iterate: SEQ ID NO 48 (ACTTATATTCAGAGCATGTGGATTGGGACTCTGAAGAACAACTTTATGGTGGACACCTTC; listed as DNA, chemistry not given here; listed as Homo sapiens)
Output: f

Task: # iterate: SEQ ID NO 85 (TGAGGGGAGAGGGGATGGGAAACATTAGGGCTGGGTTCATGTAAAGGGACCAGCATTGTG; listed as DNA, chemistry not given here; listed as Homo sapiens)
Output: t

Task: # iterate: SEQ ID NO 35 (GTTTCCATTGAAGAATATTACGCTCGGGGACAAGCCAGGTGCACGACCAAAAATTTAAAA; DNA, backbone and methylation of C not given here; listed as Homo sapiens)
Output: f
